src = PubChem BioAssay (NCI)

# Protocol notes: NCI Yeast Anticancer Drug Screen. Data for the sgs1 mgt1 strain (AID 161);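 note: 0% = growth of cultures given vehicle only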
# Condition parameters: S. cerevisiae sgs1 mgt1 strain, at 50.0 µM, active compounds read high
This is part of a sample that, as a whole, favours compounds with a hit. Of some 79,000 tested, about 15% had one in any assay.
Measure name: growth inhibition (%)
Give bare numbers, in %.

Compound | growth inhibition (%)
CC(/C=N/NC1=NCCCN1)=N\NC1=NCCCN1 | -14.3
C(=C\c1csnn1)/c1cccnc1 | 2.05
O=C(OC(C[n+]1ccccc1)c1ccccc1)c1ccccc1 (stereo not given) | 4.5
O=S(=O)(O)c1ccc(S)cc1 | 16.7

Quick request: growth inhibition for each listed item, please.
1. O=C1C2=C(Nc3ccccc3N2)OC1c1ccc2c(c1)OCO2 (stereo not given)
2. S=c1[nH]nc(COc2cccc3cccnc23)n1-c1ccccc1
3. C/C(CC/C(C)=N/O)=N\O
4. S=c1nc[nH][nH]1
5. CCOC(=O)Cn1c(C(F)(F)F)nc2nc(Cl)c(Cl)nc21
6. CC[C@@]12CCC(=S)N(CCSc3ccccc3)[C@@H]1c1c(n(S(=O)(=O)c3ccc(OC)cc3)c3ccccc13)CC2

1. -20.1
2. 2.05
3. -0.55
4. 15.6
5. -33.5
6. 0.3

====

# Protocol notes: NCI Yeast Anticancer Drug Screen. Data for the rad50 strain (AID 155);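 note: 0% = growth of vehicle-only cultures of the same strain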
# Condition parameters: S. cerevisiae rad50 strain growth inhibition; at 50.0 µM; active compounds read high
Compounds without any hit were thinned out: in the full panel of roughly 79,000, 15% have a hit.
Hi there, I'd appreciate the recorded growth inhibition for every entry that follows.
Numbers only, in %.

Worked examples, 5 compounds total:
Compound | Units of measure | Recorded measurement
O=[N+]([O-])c1c(O)c(O)c2ccccc2c1Nc1ccccc1 | % | -29.9
O=c1nc(NC(c2ccccc2)(c2ccccc2)c2ccccc2)ccn1CCCl | % | -5.35
CCOC(=O)c1c(C)nc(C)nc1N | % | 0.2
COC(=O)C(CNc1ccc(S(N)(=O)=O)cc1)=[N+]=[N-] | % | 7.4
C(#Cc1c2ccccc2c(C#Cc2ccccc2)c2c(-c3ccccc3)cccc12)c1ccccc1 | % | -11.1

// below: growth inhibition requested for another compound
# input compound: COC1OC(CO)C(O)C(O)C1Br (stereo unspecified) ; wanted: its growth inhibition
19.8

====

Hi there, I'd appreciate the recorded growth inhibition for every entry that follows.
# Protocol notes: NCI Yeast Anticancer Drug Screen. Data for the mec2-1 strain (AID 157)
# Condition parameters: S. cerevisiae mec2-1 strain, at 50.0 µM, active compounds read high
# Experimental: Growth inhibition of yeast strains with defined genetic alterations is measured as a screen for potential anti-cancer activity. Selected strains with alterations in DNA damage repair or cell cycle control were exposed to compounds and growth inhibition was measured relative to vehicle treated controls. The strain used in this assay is mec2-1
The panel holds about 79,000 compounds, 15% with a hit somewhere; the sample as a whole holds those more often.
One number for each entry, in %.

Worked examples, 4 molecules total:
Molecule | Measure name | Units of measure | Recorded measurement
O=C(CCCCC(=O)OC1CCCCC1)OC1CCCCC1 | growth inhibition | % | 3.65
CC(=Nc1ccc(C)cc1)NNc1nc2ccccc2s1 | growth inhibition | % | -7.3
Cc1ccc(C(=O)CC(C#N)c2ccccc2)cc1 (stereo not given) | growth inhibition | % | 17.4
O=C(NCCCOc1ccc(Cl)c(Cl)c1)NCCc1ccc(Cl)c(Cl)c1 | growth inhibition | % | 4.7

// below: growth inhibition requested for another molecule
# input molecule: CCCCCCCCCCCCNc1ncnc2c1cnn2C ; wanted: its growth inhibition
-14.4

====

# Protocol notes: NCI Yeast Anticancer Drug Screen. Data for the sgs1 mgt1 strain (AID 161);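 note: 0% = growth of cultures given vehicle only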
# Condition parameters: S. cerevisiae sgs1 mgt1 strain, at 50.0 µM
This is part of a sample that, as a whole, favours compounds with a hit. Of some 79,000 tested, about 15% had one in any assay. Activity calls are given as the source filed them. Cut-off read from the data, not from the text of the source: active = growth inhibition above about 70%; inactive = the rest.
Valid outcomes are listed here; reply with one: active, inactive

Observe how each entry below is paired with its result.
Compound | Label value
CC1(c2ccc(Cl)cc2)NC(=O)NC1=O (centres undefined) | inactive
Brc1cccc2ccccc12 | inactive
COc1ccc2nc(Cl)sc2c1 | inactive

Please state the recorded outcome for this compound: Cc1c2cnccc2c(C)c2c1c1ccccc1n2CCNCc1ccccc1
active

====

# Protocol notes: NCI Yeast Anticancer Drug Screen. Data for the bub3 strain (AID 167)
# Condition parameters: S. cerevisiae bub3 mutant strain, at 50.0 µM, active compounds read high
This is part of a sample that, as a whole, favours compounds with a hit. Of some 79,000 tested, about 15% had one in any assay.
Measure name: growth inhibition (%)
Numbers only, in %.

Quick request: growth inhibition for each listed item, please.
1. O=S(=O)(O)C(c1ccccc1)C(O)c1ccccc1 (stereo not drawn)
2. CCc1cc2c(c3c1CCCC3)CC1(Cc3ccc(C(=O)OC)cc3C1)C2 (stereo not drawn)
3. COc1ccc(/C=C/C(=O)c2sc(NC(=S)NC(=O)c3ccccc3F)nc2C)cc1OC

[-20.9, 3.15, 30.9]

====

# Protocol notes: NCI Yeast Anticancer Drug Screen. Data for the bub3 strain (AID 167)
# Condition parameters: S. cerevisiae bub3 mutant strain, at 50.0 µM, active compounds read high
# Procedure: Growth inhibition of yeast strains with defined genetic alterations is measured as a screen for potential anti-cancer activity. Selected strains with alterations in DNA damage repair or cell cycle control were exposed to compounds and growth inhibition was measured relative to vehicle treated controls. The strain used in this assay is bub3
Compounds without any hit were thinned out: in the full panel of roughly 79,000, 15% have a hit. Calls of active or inactive are those of the source. No stated cut-off is given here; in the data, active means growth inhibition above about 70%; inactive means the rest.
Measure name: growth inhibition

Worked examples, 3 compounds total:
Compound | Recorded measurement
Nn1c(Cc2ccccc2)n[nH]c1=O | -9.4% (inactive)
CCCCCCCCCCCCCCCSc1ccc2ccccc2c1 | -13.8% (inactive)
OCC(O)C(O)C(O)C(O)C(O)C(O)CO (centres undefined) | -1.2% (inactive)

// below: growth inhibition requested for another compound
# input compound: OCCN(/N=C\c1ccc2ccccc2c1)C1=NCCN1 ; wanted: its growth inhibition
-2.5% (inactive)

====

Hi there, I'd appreciate the recorded growth inhibition for every entry that follows.
# Protocol notes: NCI Yeast Anticancer Drug Screen. Data for the cln2 rad14 strain (AID 165);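 note: 0% = growth equal to vehicle treated cultures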
# Condition parameters: S. cerevisiae cln2 rad14 strain, at 50.0 µM, active compounds read high
About 79,000 compounds went through this panel and 15% of them were active in at least one assay; those are over-represented in the sample as a whole.
Numbers only, in %.

Worked examples, 5 molecules total:
Molecule | Units of measure | Recorded measurement
CC(C)C(=O)Nc1ccccc1-c1ccccc1 | % | -1.4
NC(=S)NNc1ccccc1 | % | -6.7
CC(O)(C1CC1)C(C(=O)O)c1ccccc1 (stereo unspecified) | % | -26.7
O=C(O)CCCCl | % | 13.7
O/N=C1/C2C=CC(C2)C1Cl (stereo unspecified) | % | 13.7

Quick request: growth inhibition for each listed item, please.
1. Cc1c(C)c(C(=O)O)c(C)c(C)c1C(=O)O
2. CCOC(=O)c1c(C)n2c3c(cccc13)CCC2
3. CCCCNC(C(=O)c1ccc(N(C)C)cc1)c1ccccc1 (stereo unspecified)
4. CC(C)CCNCCCCCCl
5. CCCCCOC(=O)Nc1ccc(OCC)cc1
6. CCN1/C(=C/C=C/C=C/c2oc3ccccc3[n+]2CC)Oc2ccccc21

[9.1, 61.6, -8.15, 36.6, -21.9, 36.8]

====

Hi there, I'd appreciate the recorded growth inhibition for every entry that follows.
# Protocol notes: NCI Yeast Anticancer Drug Screen. Data for the cln2 rad14 strain (AID 165);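 note: 0% = growth equal to vehicle treated cultures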
# Condition parameters: S. cerevisiae cln2 rad14 strain, at 50.0 µM, active compounds read high
This is part of a sample that, as a whole, favours compounds with a hit. Of some 79,000 tested, about 15% had one in any assay.
One number for each entry, in %.

Molecule | growth inhibition / %
CSc1nc(SC)c2cnn(C3OC(CO)C(O)C3O)c2n1 (stereo not drawn) | 3.25
CSc1ccc(C(=O)C[n+]2cc3ccccc3cc2C)cc1 | -26.6

// below: growth inhibition requested for another molecule
# input molecule: CC(=O)OC[C@H]1O[C@@H](O[C@H]2[C@H](OC(C)=O)C=CO[C@@H]2COC(C)=O)C(OC(C)=O)[C@H]2OC(C)(C)O[C@H]21 (stereo partly drawn) ; wanted: its growth inhibition
3.5

====

# Protocol notes: NCI Yeast Anticancer Drug Screen. Data for the bub3 strain (AID 167)
# Condition parameters: S. cerevisiae bub3 mutant strain, at 50.0 µM
This is part of a sample that, as a whole, favours compounds with a hit. Of some 79,000 tested, about 15% had one in any assay. Calls of active or inactive are those of the source. No stated cut-off is given here; in the data, active means growth inhibition above about 70%; inactive means the rest.
Valid outcomes are listed here; reply with one: active, inactive

Observe how each entry below is paired with its result.
Compound | Label value
NC(=O)Nc1ccc(S(=O)(=O)c2ccc(N)cc2)cc1 | inactive
COc1cc2c(OC)cc1CSCc1sc(C)c(c1Br)CSC2 | inactive
C=CCN1C(=O)NC(=O)C1c1ccsc1 (stereo not given) | inactive

Please state the recorded outcome for this compound: Cc1nc(N)nc2c1CCC(=O)N2
inactive

Same question, CC(C)C(CN)(C(C)C)C(C)C this time
inactive

Same question, COCCOCc1nc(C#N)c(N)o1 this time
inactive

Same question, O=C(NCCNc1ccccc1)C12CC3CC(CC(C3)C1)C2 this time
inactive

Same question, CN(C)C(=O)CCOc1ccccc1 this time
inactive

Same question, COC1=CC(=C(\C#N)c2ccc(Cl)cc2)/C=CC/1=N/O this time
inactive

Same question, CCOC(C[N+](C)(C)C)OCC this time
inactive

Same question, N#CC1C(=O)NC(=S)NC1c1ccc2c(c1)CCC2 (stereo not given) this time
inactive

Same question, COc1ccc(N=Cc2ccc(N(CCC#N)S(=O)(=O)c3ccccc3)cc2C)cc1 this time
inactive

Same question, CC(C)(Cc1ccc(Cl)cc1)NC(N)=O this time
inactive

Same question, O=CC(=O)c1ccccc1O this time
inactive

Same question, OC1C2CCC3C2CC(C(O)(c2ccccc2)c2ccccc2)C13 (stereo not given) this time
inactive

Same question, O=C(NN(Cn1c(=S)sc2ccccc21)Cn1c(=S)sc2ccccc21)c1ccccc1O this time
inactive

Same question, CN1CC(O)c2cc(N=NC(N)=O)c(O)cc21 (stereo not given) this time
inactive

Same question, O=C(Nc1ccc2ccccc2c1)OC1CCS(=O)(=O)C1 (stereo not given) this time
inactive

Same question, O=C(N/N=C/c1ccc(Cl)c([N+](=O)[O-])c1)C(O)(c1ccccc1)c1ccccc1 this time
inactive

Same question, CC(CNC(=O)c1ccccc1)(CNC(=O)c1ccccc1)[N+](=O)[O-] this time
inactive

Same question, O=C(Nc1ccccc1)C1C2C=CC(C2)C1C(=O)Nc1ccccc1 (stereo not given) this time
inactive

Same question, OCCCCCCOc1ccc(-c2cc(-c3ccccn3)nc(-c3ccccn3)c2)cc1 this time
active

Same question, CC1=CC(=O)C(=Ic2ccccc2)C(=O)O1 this time
inactive

Same question, CCCOC(=O)OCCC this time
inactive

Same question, CC(=O)Nc1ccc(N)cc1N this time
inactive
